Molecular target: T1, Human Id1: Histidine (human, UniProt P41134 1-155, limits assumed)
T1 construct: Fusion protein made in E. coli from vector pGW07; also called h-Id1: his; not shown: His tag
T1 sequence (looked up): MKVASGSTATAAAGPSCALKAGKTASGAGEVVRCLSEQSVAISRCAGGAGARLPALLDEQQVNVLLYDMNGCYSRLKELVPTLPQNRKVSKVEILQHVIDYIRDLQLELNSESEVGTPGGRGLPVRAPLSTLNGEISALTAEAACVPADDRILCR
Assay: ELISA, Ab 0.005 µg/ml
Description: The rabbit monoclonal anti-human Id3 (clone #3-3) and the rabbit monoclonal anti-mouse/human Id3 (clones #6-1, 16-1, 17-3, and 42-1) produced in Example 6 were tested reactivity against the following antigens: mouse Id1:His, human Id1:His, mouse Id2:His, human Id2:His, mouse Id3:His, human Id3:His, mouse Id4:His, human Id4:His and GST. 1. […]
measured-metric: A450 (A450)
Please respond with the number in A450 and leave the unit unwritten.

- binder: "rabbit monoclonal anti-human Id3, clone #BCH-4/#3-3 (antibody, V domains shown, Rabbit IgG from a rabbit hybridoma; also called h Id3 MoAb 3-3) VH: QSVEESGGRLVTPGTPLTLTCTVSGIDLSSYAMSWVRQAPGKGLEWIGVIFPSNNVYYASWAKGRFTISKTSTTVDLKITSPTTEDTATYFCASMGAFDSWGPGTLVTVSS VL: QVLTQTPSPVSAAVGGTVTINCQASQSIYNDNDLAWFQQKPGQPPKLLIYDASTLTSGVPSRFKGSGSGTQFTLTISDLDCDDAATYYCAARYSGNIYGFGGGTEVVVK"
  numeric-result: 0.047

Pending binder:
Query :: Give the measured A450 for rabbit monoclonal anti-mouse/human Id3, clone #BCH-4/#42-1 (antibody, V domains shown, Rabbit IgG from a rabbit hybridoma; also called m/h Id3 MoAb 42-1) VH: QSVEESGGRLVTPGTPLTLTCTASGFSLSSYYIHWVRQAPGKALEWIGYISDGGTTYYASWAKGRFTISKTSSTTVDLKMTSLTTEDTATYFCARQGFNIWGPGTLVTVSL VL: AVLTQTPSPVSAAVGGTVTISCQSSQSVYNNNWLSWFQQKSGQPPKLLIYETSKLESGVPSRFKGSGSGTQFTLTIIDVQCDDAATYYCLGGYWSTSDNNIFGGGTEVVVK
Result :: 0.046
